- STUDY_SYSTEM: T1, human GARP (glycoprotein A repetitions predominant, LRRC32) on the cell surface (human, UniProt Q14392 20-662)
- T1 construct: whole, on cells; also called hGARP; free GARP
- T1 sequence (looked up): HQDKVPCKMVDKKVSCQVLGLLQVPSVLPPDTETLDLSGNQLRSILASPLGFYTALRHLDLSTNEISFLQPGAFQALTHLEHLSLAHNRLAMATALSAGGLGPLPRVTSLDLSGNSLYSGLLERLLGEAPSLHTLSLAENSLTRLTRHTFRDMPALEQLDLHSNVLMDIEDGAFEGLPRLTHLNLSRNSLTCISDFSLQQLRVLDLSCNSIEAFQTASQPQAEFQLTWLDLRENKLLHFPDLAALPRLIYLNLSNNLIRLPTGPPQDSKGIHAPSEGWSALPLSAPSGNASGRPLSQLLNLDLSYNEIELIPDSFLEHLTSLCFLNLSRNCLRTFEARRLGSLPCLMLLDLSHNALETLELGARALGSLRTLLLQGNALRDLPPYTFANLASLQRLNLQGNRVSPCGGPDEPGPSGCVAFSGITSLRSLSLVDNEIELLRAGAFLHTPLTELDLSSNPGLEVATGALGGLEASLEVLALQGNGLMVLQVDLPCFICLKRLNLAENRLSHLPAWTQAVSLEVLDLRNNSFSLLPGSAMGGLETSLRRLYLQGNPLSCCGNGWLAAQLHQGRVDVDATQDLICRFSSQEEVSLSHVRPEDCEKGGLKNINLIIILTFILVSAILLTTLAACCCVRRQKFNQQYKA
- TEST_DESCRIPTION: FACS, Ag(+) cells, heated-sample series, 0 ug/ml antibody (blank)
METRIC: MFI
Put down the number, then write its unit next to it.

The cases that follow already have their MFI on record.
# BINDER, METRIC, VALUE_REPORTED
measured = [
    ("huPIIO-1VH3VL3 (antibody, V domains shown, Humanized IgG from Expi293, tested as culture supernatant; also called H3L3; HuPIIO-1VH3/L3) VH: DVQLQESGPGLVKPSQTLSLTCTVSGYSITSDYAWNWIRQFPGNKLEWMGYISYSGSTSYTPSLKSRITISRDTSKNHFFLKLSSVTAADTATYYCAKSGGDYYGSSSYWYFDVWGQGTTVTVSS VL: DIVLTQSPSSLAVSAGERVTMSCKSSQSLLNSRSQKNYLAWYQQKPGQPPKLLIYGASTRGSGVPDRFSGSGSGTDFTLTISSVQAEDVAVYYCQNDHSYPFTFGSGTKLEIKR", "MFI", "9.91 MFI"),
    ("huPIIO-1VH4VL1 (antibody, V domains shown, Humanized IgG from Expi293, tested as culture supernatant; also called H4L1; HuPIIO-1VH4/L1) VH: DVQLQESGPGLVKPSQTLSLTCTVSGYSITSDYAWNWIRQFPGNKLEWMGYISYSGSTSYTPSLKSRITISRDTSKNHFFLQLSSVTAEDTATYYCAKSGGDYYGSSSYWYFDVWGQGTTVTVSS VL: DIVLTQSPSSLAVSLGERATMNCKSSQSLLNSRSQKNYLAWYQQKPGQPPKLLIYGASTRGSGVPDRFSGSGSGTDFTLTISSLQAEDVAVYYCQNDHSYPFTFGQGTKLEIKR", "MFI", "9.91 MFI"),
    ("huPIIO-1VH4VL2 (antibody, V domains shown, Humanized IgG from Expi293, tested as culture supernatant; also called H4L2; HuPIIO-1VH4/L2) VH: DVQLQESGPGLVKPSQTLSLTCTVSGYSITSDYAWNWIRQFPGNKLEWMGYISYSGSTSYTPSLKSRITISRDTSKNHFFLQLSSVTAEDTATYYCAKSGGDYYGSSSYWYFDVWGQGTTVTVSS VL: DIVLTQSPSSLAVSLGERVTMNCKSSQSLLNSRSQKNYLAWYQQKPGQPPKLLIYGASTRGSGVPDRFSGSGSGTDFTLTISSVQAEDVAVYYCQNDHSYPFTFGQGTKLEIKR", "MFI", "9.91 MFI"),
    ("huPIIO-1VH4VL3 (antibody, V domains shown, Humanized IgG from Expi293, tested as culture supernatant; also called H4L3; HuPIIO-1VH4/L3) VH: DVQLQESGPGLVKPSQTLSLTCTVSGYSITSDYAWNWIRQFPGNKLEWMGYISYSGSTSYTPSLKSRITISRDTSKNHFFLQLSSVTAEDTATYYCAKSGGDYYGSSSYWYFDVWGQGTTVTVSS VL: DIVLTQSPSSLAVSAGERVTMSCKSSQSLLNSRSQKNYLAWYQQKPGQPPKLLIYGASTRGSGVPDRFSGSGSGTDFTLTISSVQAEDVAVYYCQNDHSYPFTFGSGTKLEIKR", "MFI", "9.91 MFI"),
]

## Input What value of measured MFI is listed for huPIIO-1VH3VL1 (antibody, V domains shown, Humanized IgG from Expi293, tested as culture supernatant; also called H3L1; HuPIIO-1VH3/L1) VH: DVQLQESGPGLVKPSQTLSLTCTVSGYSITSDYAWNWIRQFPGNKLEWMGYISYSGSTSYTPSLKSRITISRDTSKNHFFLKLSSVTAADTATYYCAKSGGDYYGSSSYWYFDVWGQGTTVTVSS VL: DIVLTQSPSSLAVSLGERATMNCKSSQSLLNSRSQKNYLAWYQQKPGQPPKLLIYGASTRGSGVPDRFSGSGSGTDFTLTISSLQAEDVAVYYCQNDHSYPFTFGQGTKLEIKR ?
## Output 9.91 MFI

## Input For huPIIO-1VH1VL2 (antibody, V domains shown, Humanized IgG from Expi293; also called H1L2; HuPIIO-1VH1/L2) VH: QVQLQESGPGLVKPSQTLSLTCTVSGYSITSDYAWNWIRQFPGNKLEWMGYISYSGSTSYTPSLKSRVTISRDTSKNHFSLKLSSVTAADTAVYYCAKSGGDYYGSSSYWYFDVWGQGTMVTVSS VL: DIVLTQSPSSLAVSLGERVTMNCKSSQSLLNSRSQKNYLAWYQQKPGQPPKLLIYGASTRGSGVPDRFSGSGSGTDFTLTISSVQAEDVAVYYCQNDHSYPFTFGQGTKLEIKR , what is its reported MFI?
## Output 9.91 MFI
